Each entry below carries its reported IC50.
System: HeLa nuclear HDACs
Assay: HDAC fluorometric activity assay, HeLa nuclear extract
Settings: read-out: IC50 HeLa Nuclear HDACs; Boc-Lys(Ac)-AMC 10 μM
recordedMetric: IC50

>  <recordSmiles>
COc1cc(CCC(=O)CCCCc2ccccc2)ccc1O

>  <valueMeasured>
> 40 µM

$$$$
>  <recordSmiles>
O=C(CCCc1ccccc1)CCc1ccc(O)c(O)c1

>  <valueMeasured>
> 40 µM

$$$$
>  <recordSmiles>
O=C(/C=C/c1ccc(O)c(O)c1)CCCc1ccccc1

>  <valueMeasured>
> 40 µM

$$$$

---

Biological target: Aβ1-42 (Homo sapiens, UniProt P05067)
Construct: Aβ1-42 peptides were purchased from Kelowna International Scientific Inc; purchased Kelowna International Scientific Inc
Sequence (P05067 672-713 limits assumed): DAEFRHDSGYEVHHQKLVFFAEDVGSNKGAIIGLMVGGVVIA
Assay: Inhibition of Aβ1-42 self-aggregation, thioflavin-T (ThT) fluorescence assay
Assay type: biochemical
Settings: single concentration of 10 μM, 24 h, read-out: Beta-Amyloid Aggregation Inhibition (%)
Each entry below carries its reported inhibition at 10 µM.
recordedMetric: inhibition at 10 µM (%)

>  <recordSmiles>
O=C(/C=C/c1ccc(O)c(Br)c1)CCCCc1ccccc1

>  <recordedMetric>
inhibition at 10 µM

>  <valueMeasured>
28.1

$$$$
>  <recordSmiles>
O=C(/C=C/c1ccc(O)c(O)c1)c1ccccc1

>  <recordedMetric>
inhibition at 10 µM

>  <valueMeasured>
83.1

$$$$
>  <recordSmiles>
O=C(/C=C/c1ccc(O)c(F)c1)CCCCc1ccccc1

>  <recordedMetric>
inhibition at 10 µM

>  <valueMeasured>
34.9

$$$$
>  <recordSmiles>
O=C(/C=C/c1ccc(O)c(Cl)c1)CCCCc1ccccc1

>  <recordedMetric>
inhibition at 10 µM

>  <valueMeasured>
27.8

$$$$
>  <recordSmiles>
O=C(CCCCc1ccccc1)CCc1ccccc1

>  <recordedMetric>
inhibition at 10 µM

>  <valueMeasured>
14

$$$$
>  <recordSmiles>
O=C(CCCCc1ccccc1)CCc1ccc(O)cc1

>  <recordedMetric>
inhibition at 10 µM

>  <valueMeasured>
30.4

$$$$
>  <recordSmiles>
O=C(/C=C/c1ccc(O)c(O)c1)Cc1ccccc1

>  <recordedMetric>
inhibition at 10 µM

>  <valueMeasured>
79.4

$$$$
>  <recordSmiles>
O=C(/C=C/c1cc(O)c(O)c(O)c1)CCCCc1ccccc1

>  <recordedMetric>
inhibition at 10 µM

>  <valueMeasured>
78.7

$$$$
>  <recordSmiles>
O=C(CCCCc1ccccc1)CCc1cccc(O)c1

>  <recordedMetric>
inhibition at 10 µM

>  <valueMeasured>
-22.1

$$$$
>  <recordSmiles>
O=C(CCCCc1ccccc1)CCc1ccc(O)c(Cl)c1

>  <recordedMetric>
inhibition at 10 µM

>  <valueMeasured>
17.8

$$$$

---

Test system: HeLa nuclear HDACs
Assay: HDAC fluorometric activity assay, HeLa nuclear extract
Conditions: read-out: IC50 HeLa Nuclear HDACs; Boc-Lys(Ac)-AMC 10 μM
Each entry below carries its reported IC50.

>  <recordSmiles>
O=C(/C=C/c1cc(O)c(O)c(O)c1)CCCCc1ccccc1

>  <IC50>
> 40 µM

$$$$
>  <recordSmiles>
O=C(/C=C/c1ccc(O)c(O)c1)CCCCc1ccccc1

>  <IC50>
> 40 µM

$$$$
>  <recordSmiles>
O=C(CCCCc1ccccc1)CCc1ccc(O)cc1

>  <IC50>
> 40 µM

$$$$
>  <recordSmiles>
O=C(/C=C/c1cccc(O)c1O)CCCCc1ccccc1

>  <IC50>
> 40 µM

$$$$
>  <recordSmiles>
COc1cc(/C=C/C(=O)CCCCc2ccccc2)ccc1O

>  <IC50>
> 40 µM

$$$$
>  <recordSmiles>
O=C(CCCCc1ccccc1)CCc1ccccc1

>  <IC50>
> 40 µM

$$$$
>  <recordSmiles>
O=C(CCCCc1ccccc1)CCc1cccc(O)c1

>  <IC50>
> 40 µM

$$$$
>  <recordSmiles>
O=C(/C=C/c1ccc(O)c(O)c1)c1ccccc1

>  <IC50>
> 40 µM

$$$$
>  <recordSmiles>
O=C(CCCCc1ccccc1)CCc1ccc(O)c(Br)c1

>  <IC50>
> 40 µM

$$$$
>  <recordSmiles>
O=C(CCc1ccc(O)c(O)c1)Cc1ccccc1

>  <IC50>
> 40 µM

$$$$

---

Target: Aβ1-42 (Homo sapiens, UniProt P05067)
Construct: Aβ1-42 peptides were purchased from Kelowna International Scientific Inc; purchased Kelowna International Scientific Inc
Test: Inhibition of Aβ1-42 self-aggregation, thioflavin-T (ThT) fluorescence assay
Assay type: biochemical
Settings: 24 h, read-out: Beta-Amyloid Aggregation IC50
Each entry below carries its reported IC50.

>  <molecule>
O=C(CCCCc1ccccc1)CCc1ccc(O)c(O)c1

>  <boundOperator>
=

>  <IC50 / µM>
5.8

$$$$
>  <molecule>
O=C(/C=C/c1cccc(O)c1)CCCCc1ccccc1

>  <boundOperator>
>

>  <IC50 / µM>
10

$$$$
>  <molecule>
O=C(/C=C/c1ccc(O)c(O)c1)Cc1ccccc1

>  <boundOperator>
=

>  <IC50 / µM>
2.1

$$$$
>  <molecule>
O=C(CCCCc1ccccc1)CCc1cccc(O)c1O

>  <boundOperator>
=

>  <IC50 / µM>
6

$$$$
>  <molecule>
O=C(/C=C/c1ccc(O)c(O)c1)CCc1ccccc1

>  <boundOperator>
=

>  <IC50 / µM>
3.4

$$$$
>  <molecule>
O=C(CCCCc1ccccc1)CCc1cccc(O)c1

>  <boundOperator>
>

>  <IC50 / µM>
10

$$$$
>  <molecule>
O=C(/C=C/c1ccc(O)c(Br)c1)CCCCc1ccccc1

>  <boundOperator>
>

>  <IC50 / µM>
10

$$$$
>  <molecule>
O=C(CCCCCCC(=O)Nc1ccccc1)NO [SAHA, suberoylanilide hydroxamic acid, reference compound]

>  <boundOperator>
>

>  <IC50 / µM>
10

$$$$
>  <molecule>
O=C(/C=C/c1ccc(O)c(O)c1)CCCc1ccccc1

>  <boundOperator>
=

>  <IC50 / µM>
3.1

$$$$
>  <molecule>
O=C(/C=C/c1ccc(O)c(O)c1)CCCCc1ccccc1

>  <boundOperator>
=

>  <IC50 / µM>
6.1

$$$$

---

Target: Aβ1-42 (Homo sapiens)
Construct: Aβ1-42 peptides were purchased from Kelowna International Scientific Inc; purchased Kelowna International Scientific Inc
Assay: Inhibition of Aβ1-42 self-aggregation, thioflavin-T (ThT) fluorescence assay
Format: biochemical
Settings: single concentration of 10 μM, 24 h, read-out: Beta-Amyloid Aggregation Inhibition (%)

>  <compound>
O=C(CCCc1ccccc1)CCc1ccc(O)c(O)c1

>  <inhibition at 10 µM (%)>
59

$$$$
>  <compound>
O=C(CCc1ccc(O)c(O)c1)c1ccccc1

>  <inhibition at 10 µM (%)>
66.4

$$$$
>  <compound>
COc1cc(CCC(=O)CCCCc2ccccc2)ccc1O

>  <inhibition at 10 µM (%)>
4.6

$$$$
>  <compound>
O=C(CCc1ccc(O)c(O)c1)Cc1ccccc1

>  <inhibition at 10 µM (%)>
68.6

$$$$
>  <compound>
O=C(/C=C/c1ccc(O)c(O)c1)CCc1ccccc1

>  <inhibition at 10 µM (%)>
83.7

$$$$
>  <compound>
O=C(/C=C/c1ccc(O)c(O)c1)CCCCc1ccccc1

>  <inhibition at 10 µM (%)>
76.2

$$$$
>  <compound>
O=C(/C=C/c1ccc(O)c(O)c1)CCCc1ccccc1

>  <inhibition at 10 µM (%)>
74

$$$$
>  <compound>
O=C(CCc1ccccc1)CCc1ccc(O)c(O)c1

>  <inhibition at 10 µM (%)>
71.3

$$$$
>  <compound>
O=C(CCCCc1ccccc1)CCc1ccc(O)c(F)c1

>  <inhibition at 10 µM (%)>
22.1

$$$$
>  <compound>
O=c1c(O)c(-c2ccc(O)cc2O)oc2cc(O)cc(O)c12 [Morin, morin, reference compound]

>  <inhibition at 10 µM (%)>
56.9

$$$$

---

Biological target: Aβ1-42 (Homo sapiens, UniProt P05067)
Construct: Aβ1-42 peptides were purchased from Kelowna International Scientific Inc; purchased Kelowna International Scientific Inc
Assay: Inhibition of Aβ1-42 self-aggregation, thioflavin-T (ThT) fluorescence assay
Type: biochemical
Conditions: single concentration of 10 μM, 24 h, read-out: Beta-Amyloid Aggregation Inhibition (%)
Please mark yes (1) if the recorded inhibition at 10 µM is equal to or greater than 20%, and no (0) if it falls below.

>  <compound>
O=C(CCCCCCC(=O)Nc1ccccc1)NO [SAHA, suberoylanilide hydroxamic acid, reference compound]

>  <className>
no (0)

$$$$
>  <compound>
O=C(/C=C/c1ccc(O)c([N+](=O)[O-])c1)CCCCc1ccccc1

>  <className>
yes (1)

$$$$
>  <compound>
O=C(/C=C/c1cccc(O)c1)CCCCc1ccccc1

>  <className>
no (0)

$$$$
>  <compound>
O=C(CCCCc1ccccc1)CCc1ccc(O)c(Br)c1

>  <className>
no (0)

$$$$
>  <compound>
O=C(CCCCc1ccccc1)CCc1ccc(O)c(O)c1

>  <className>
yes (1)

$$$$
>  <compound>
COc1cc(/C=C/C(=O)CCCCc2ccccc2)ccc1O

>  <className>
yes (1)

$$$$
>  <compound>
O=C(CCCCc1ccccc1)CCc1cccc(O)c1O

>  <className>
yes (1)

$$$$
>  <compound>
O=C(/C=C/c1ccccc1)CCCCc1ccccc1

>  <className>
no (0)

$$$$
>  <compound>
O=C(/C=C/c1ccc(O)cc1)CCCCc1ccccc1

>  <className>
yes (1)

$$$$
>  <compound>
O=C(/C=C/c1cccc(O)c1O)CCCCc1ccccc1

>  <className>
yes (1)

$$$$
